Target: Replicative DNA helicase DnaB (Mycobacterium tuberculosis, UniProt P9WMR3)
Assay: DnaB intein splicing inhibitors, dose response, biochemical, cell-free fluorescence (AID 449749)
Type: functional
Calls of active or inactive are those of the source.
Parameter call: string, one of Y for active, N for inactive

CCCCCCCCCCCCCCCC[N+](C)(C)CC :: Y
COc1cc(/C=C2\C(=O)N(c3ccc(S(N)(=O)=O)cc3)N=C2C)ccc1OC(=O)c1ccco1 :: N
CCCc1n[nH]c2c1C(c1ccc(OCCN3CCOCC3)c(OC)c1)C(C#N)=C(N)O2 (stereo not given) :: Y
O=C(O)CSc1c2c(nc3cc(C(=O)Nc4cccc(C(F)(F)F)c4)ccc13)CCCC2 :: Y
COC(=O)c1ccccc1S(=O)(=O)N1CCC(NC(=O)c2ccccc2)CC1 :: Y

// outcome(item) with item = COc1cccc(/C=C2\SC(=S)N(CCCC(=O)N3CCCC3)C2=O)c1
Y

// outcome(item) with item = COc1ccc(NC(=O)/C(Cl)=C(/Cl)[S+]([O-])Cc2ccccc2)cn1 (stereo not given)
Y

// outcome(item) with item = CC1=NN(c2ccccc2)C(=O)/C1=C/c1ccc(Cl)cc1
Y

// outcome(item) with item = CC(=O)N(C1=C(N)C(=O)c2ccccc2C1=O)c1ccccc1
Y

====

Target: Nonstructural protein 1 (Influenza A virus)
Sequence (Q194T2 whole entry): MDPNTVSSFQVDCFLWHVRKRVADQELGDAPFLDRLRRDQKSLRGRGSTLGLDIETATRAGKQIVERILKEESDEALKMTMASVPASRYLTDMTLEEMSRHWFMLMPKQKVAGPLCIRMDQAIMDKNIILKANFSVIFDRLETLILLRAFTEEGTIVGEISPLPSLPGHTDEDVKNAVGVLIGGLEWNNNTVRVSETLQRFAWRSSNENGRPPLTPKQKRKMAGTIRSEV
Format: functional, Influenza A virus (A/California/07/2009(H1N1))
Activity calls are given as the source filed them.
reportedProperty: IC50

Completed entries (count: 5):
O=C(N/N=C/c1cccc([N+](=O)[O-])c1O)c1cccs1 :: 7.41 µM (active)
OC(c1ccccn1)(c1ccccn1)c1ccccn1 :: 10.9 µM (active)
COc1cccc(/C=C2\SC(=S)N(CCCC(=O)N3CCCC3)C2=O)c1 :: 66.8 µM (active)
CC(C)N1C(=O)/C(=C\c2nc3ccccc3c(=O)n2-c2ccccc2)c2ccccc21 :: 50.5 µM (active)
Cc1ccccc1N=C(S)N(CCN(C)C)C(C)c1ccccn1 (stereo unspecified) :: 64.5 µM (active)

Read the next record carefully.
Which value of IC50 has been reported for Cc1ccc(S(=O)(=O)N2CCOCC2)cc1NC(=O)CNCc1ccccn1 in the records?
18 µM (active)

====

Entries annotated with measured IC50
Target: Genome polyprotein (dengue virus type 2, UniProt P29990)
Experiment: Dengue-2 NS5 methyltransferase inhibitors, primary screen, biochemical, confirmation dose response (AID 588689)
Type: functional
Calls of active or inactive are those of the source.

O=[N+]([O-])c1cc([N+](=O)[O-])c2cc3ccccc3nc2c1 :: 6.37 µM (active)

Which value of IC50 has been reported for Cn1nc([N+](=O)[O-])c(C(C#N)c2nc3ccccc3n2C)c(Cl)c1=O (stereo not given) in the records?
16.7 µM (active)

Which value of IC50 has been reported for O=C(O)c1ccc(NC2=C/C(=N/S(=O)(=O)c3cccs3)c3ccccc3C2=O)cc1 in the records?
58.1 µM (active)

Which value of IC50 has been reported for O=C(O)CSc1cc(NS(=O)(=O)c2cccc([N+](=O)[O-])c2)c2ccccc2c1O in the records?
5.4 µM (active)

Which value of IC50 has been reported for CC1=NN(c2ccccc2)C(=O)/C1=C/c1ccc(Cl)cc1 in the records?
38.6 µM (active)

====

Biological target: Kappa-type opioid receptor (Homo sapiens, UniProt P41145)
Sequence (P41145 whole entry): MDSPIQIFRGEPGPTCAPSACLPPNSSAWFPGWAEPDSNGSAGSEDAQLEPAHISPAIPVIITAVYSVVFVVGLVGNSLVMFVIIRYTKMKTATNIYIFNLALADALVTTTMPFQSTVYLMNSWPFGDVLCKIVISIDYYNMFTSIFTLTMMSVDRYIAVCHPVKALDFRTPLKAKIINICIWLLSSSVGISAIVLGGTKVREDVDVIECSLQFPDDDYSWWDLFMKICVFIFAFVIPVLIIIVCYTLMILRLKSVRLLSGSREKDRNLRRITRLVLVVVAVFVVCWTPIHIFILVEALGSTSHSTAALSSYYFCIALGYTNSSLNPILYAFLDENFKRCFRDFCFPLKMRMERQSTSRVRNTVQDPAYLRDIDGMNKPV
Format: functional
reportedProperty: pIC50
In simple prose, pIC50 is minus the logarithm base ten of a concentration in moles per litre.

Please tell me: pIC50 of COc1ccc(NC(=O)/C(Cl)=C(/Cl)[S+]([O-])Cc2ccccc2)cn1 (configuration not stated) , system Kappa-type opioid receptor (Homo sapiens, UniProt P41145)?
5.12

====

Molecular target: Eukaryotic translation initiation factor 4E (Mus musculus, UniProt P63073)
Sequence (P63073 whole entry): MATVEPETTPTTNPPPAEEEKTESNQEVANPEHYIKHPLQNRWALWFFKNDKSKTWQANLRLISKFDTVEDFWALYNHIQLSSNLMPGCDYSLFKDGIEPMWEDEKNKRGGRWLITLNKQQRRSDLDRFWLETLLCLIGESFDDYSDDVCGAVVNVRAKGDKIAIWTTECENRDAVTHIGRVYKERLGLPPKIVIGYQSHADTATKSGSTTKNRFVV
Experiment: eIF4E–eIF4G protein interaction inhibitors, dose response, biochemical, TR-FRET (AID 855);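 further: potency for disrupting eIF4E binding to eIF4GI seen as loss of FRET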
Assay type: functional
Calls of active or inactive are those of the source.
Entries annotated with measured IC50

Completed entries (count: 2):
Oc1n[nH]c(CSCc2ccccc2Cl)n1 :: > 64 µM (inactive)
COc1ccc2nc(N=C(S)N(C)C)sc2c1 :: > 64 µM (inactive)

Which value of IC50 has been reported for Cc1ccc(CN(Cc2ccccc2)C(S)=NCC(=O)N2CCC3(CC2)OCCO3)o1 in the records?
50 µM (inactive)

Which value of IC50 has been reported for N#Cc1cc(-c2ccccc2)nn1-c1ccccc1 in the records?
> 64 µM (inactive)

====

Biological target: Fatty acid synthase (Homo sapiens)
Sequence (P49327 whole entry, the tested form may be a part): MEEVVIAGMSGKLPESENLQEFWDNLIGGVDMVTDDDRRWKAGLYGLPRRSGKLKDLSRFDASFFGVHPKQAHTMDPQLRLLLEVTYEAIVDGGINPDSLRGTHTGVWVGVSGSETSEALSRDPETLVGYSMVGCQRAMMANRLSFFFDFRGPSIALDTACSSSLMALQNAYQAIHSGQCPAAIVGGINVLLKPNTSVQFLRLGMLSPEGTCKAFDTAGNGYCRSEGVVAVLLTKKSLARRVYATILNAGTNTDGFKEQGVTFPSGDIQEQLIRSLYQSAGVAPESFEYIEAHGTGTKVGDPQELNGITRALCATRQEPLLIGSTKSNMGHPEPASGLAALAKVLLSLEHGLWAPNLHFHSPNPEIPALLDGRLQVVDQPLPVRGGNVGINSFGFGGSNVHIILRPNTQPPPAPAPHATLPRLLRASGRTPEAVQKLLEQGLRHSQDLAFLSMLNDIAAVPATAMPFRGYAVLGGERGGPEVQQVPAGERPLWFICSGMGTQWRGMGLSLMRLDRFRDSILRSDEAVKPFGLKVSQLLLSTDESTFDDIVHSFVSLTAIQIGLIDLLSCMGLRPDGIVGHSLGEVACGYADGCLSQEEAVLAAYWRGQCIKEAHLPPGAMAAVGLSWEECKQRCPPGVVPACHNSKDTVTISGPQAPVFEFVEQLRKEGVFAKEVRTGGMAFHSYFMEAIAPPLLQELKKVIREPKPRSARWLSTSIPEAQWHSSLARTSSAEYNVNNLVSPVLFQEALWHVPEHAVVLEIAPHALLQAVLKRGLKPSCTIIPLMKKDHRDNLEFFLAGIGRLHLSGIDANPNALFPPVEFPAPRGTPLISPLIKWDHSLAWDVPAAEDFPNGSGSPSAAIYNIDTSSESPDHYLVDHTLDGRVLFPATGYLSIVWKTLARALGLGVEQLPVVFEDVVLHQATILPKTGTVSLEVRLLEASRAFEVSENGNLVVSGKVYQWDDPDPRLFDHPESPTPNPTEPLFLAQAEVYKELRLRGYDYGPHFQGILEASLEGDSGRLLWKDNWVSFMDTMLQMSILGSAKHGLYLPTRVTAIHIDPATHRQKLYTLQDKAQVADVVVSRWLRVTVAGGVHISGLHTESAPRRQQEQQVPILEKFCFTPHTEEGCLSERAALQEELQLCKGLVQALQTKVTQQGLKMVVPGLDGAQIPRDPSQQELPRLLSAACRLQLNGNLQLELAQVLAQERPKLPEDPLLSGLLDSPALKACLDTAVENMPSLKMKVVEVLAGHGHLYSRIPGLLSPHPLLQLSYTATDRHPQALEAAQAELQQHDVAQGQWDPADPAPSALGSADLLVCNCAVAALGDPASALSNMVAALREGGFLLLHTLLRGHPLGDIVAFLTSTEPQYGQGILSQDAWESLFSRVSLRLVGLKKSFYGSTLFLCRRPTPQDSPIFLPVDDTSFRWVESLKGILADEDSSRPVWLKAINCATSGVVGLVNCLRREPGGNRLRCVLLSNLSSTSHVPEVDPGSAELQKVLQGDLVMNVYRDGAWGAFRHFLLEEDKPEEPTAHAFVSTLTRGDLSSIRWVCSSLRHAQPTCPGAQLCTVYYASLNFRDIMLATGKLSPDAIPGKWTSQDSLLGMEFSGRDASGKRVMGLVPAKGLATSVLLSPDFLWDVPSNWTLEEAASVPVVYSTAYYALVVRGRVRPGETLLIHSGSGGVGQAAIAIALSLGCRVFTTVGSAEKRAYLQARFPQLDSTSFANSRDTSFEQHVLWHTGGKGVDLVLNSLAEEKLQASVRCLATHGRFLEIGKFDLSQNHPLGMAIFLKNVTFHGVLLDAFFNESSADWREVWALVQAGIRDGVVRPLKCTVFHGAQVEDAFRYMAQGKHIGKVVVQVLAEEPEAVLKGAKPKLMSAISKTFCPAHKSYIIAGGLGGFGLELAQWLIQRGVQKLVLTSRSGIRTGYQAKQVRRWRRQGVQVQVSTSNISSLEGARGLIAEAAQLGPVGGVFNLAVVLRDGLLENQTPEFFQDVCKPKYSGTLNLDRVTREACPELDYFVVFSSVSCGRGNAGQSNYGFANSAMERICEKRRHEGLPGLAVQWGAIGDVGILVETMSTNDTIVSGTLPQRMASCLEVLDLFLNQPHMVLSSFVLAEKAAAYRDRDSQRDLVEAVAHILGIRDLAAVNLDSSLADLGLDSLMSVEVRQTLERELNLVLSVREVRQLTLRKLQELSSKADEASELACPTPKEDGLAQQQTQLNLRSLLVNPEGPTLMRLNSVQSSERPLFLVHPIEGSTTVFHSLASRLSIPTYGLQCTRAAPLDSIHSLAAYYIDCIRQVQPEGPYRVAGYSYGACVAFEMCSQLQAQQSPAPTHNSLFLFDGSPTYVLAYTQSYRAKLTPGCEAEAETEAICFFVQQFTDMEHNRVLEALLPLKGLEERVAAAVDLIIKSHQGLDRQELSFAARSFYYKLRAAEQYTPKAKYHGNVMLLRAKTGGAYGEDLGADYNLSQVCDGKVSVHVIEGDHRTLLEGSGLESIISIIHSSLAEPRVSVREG
Assay: FAS thioesterase domain inhibitors, dose response, biochemical, endpoint fluorescence intensity, uHTS hits (AID 624327);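 further: fluorescence from hydrolysis of an O-methyl fluorescein acyl ester substrate by the enzyme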
Type: functional
Activity calls are given as the source filed them.
Parameter call: string, one of Yes = active, No = inactive

These solved cases illustrate the format of a correct answer.
C[C@H](CO)N1C[C@H](C)[C@@H](CN(C)C(=O)NC2CCCCC2)Oc2c(NC(=O)Nc3ccccc3)cccc2C1=O :: Yes
O=C(/C=C/c1cc([N+](=O)[O-])ccc1OC(F)F)Nc1cccc2ccccc12 :: No
CCN1CCN(S(=O)(=O)c2ccc(Cl)c(C(=O)N(C)Cc3ccc(C(C)(C)C)cc3)c2)CC1 :: Yes

// outcome(item) with item = C#CCN(C[C@H]1[C@H](OC(=O)NC2CCCC2)[C@H](OC(=O)NC2CCCC2)C[C@H]2C(=O)N(c3ccccc3)C(=O)[C@@H]12)S(=O)(=O)c1ccc(C)cc1
No

====

System: Streptococcus
Assay: Group A Streptococcus viability loss, dose response, counter-screen for streptokinase expression inhibitor project, luminescence, BacTiterGlo (AID 1915);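 further: potency for reduction of bacterial viability or growth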
Type: functional, organism-based
Activity calls are given as the source filed them.
reportedProperty: EC50

Completed entries (count: 2):
CCn1cc(C(=O)OCC(=O)c2cc(C)n(-c3cccc(C(F)(F)F)c3)c2C)c(=O)c2ccc(C)nc21 :: > 50 µM (not active)
O=C(NNc1ccccc1Cl)C(O)(c1cccc(C(F)(F)F)c1)c1cccc(C(F)(F)F)c1 :: 17.4 µM (active)

Please tell me: EC50 of Cc1cc2c(=O)n(Cc3ccco3)c(SCC(=O)N3CCCc4ccccc43)nc2s1 , system Streptococcus?
> 150 µM (not active)

Please tell me: EC50 of COc1ccc2[nH]c3c(C)c4ccncc4c(C)c3c2c1 , system Streptococcus?
8.86 µM (active)

Please tell me: EC50 of CCOC(=O)c1c(NC(=O)COC(=O)c2ccc(C)s2)sc2c1CC(C)(C)NC2(C)C , system Streptococcus?
26.8 µM (active)

====

Target: Large T antigen (Simian virus 40, UniProt P03070);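 further: Confirmatory-stage PubChem screen for compounds that inhibit SV40 T antigen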
Sequence (P03070 whole entry): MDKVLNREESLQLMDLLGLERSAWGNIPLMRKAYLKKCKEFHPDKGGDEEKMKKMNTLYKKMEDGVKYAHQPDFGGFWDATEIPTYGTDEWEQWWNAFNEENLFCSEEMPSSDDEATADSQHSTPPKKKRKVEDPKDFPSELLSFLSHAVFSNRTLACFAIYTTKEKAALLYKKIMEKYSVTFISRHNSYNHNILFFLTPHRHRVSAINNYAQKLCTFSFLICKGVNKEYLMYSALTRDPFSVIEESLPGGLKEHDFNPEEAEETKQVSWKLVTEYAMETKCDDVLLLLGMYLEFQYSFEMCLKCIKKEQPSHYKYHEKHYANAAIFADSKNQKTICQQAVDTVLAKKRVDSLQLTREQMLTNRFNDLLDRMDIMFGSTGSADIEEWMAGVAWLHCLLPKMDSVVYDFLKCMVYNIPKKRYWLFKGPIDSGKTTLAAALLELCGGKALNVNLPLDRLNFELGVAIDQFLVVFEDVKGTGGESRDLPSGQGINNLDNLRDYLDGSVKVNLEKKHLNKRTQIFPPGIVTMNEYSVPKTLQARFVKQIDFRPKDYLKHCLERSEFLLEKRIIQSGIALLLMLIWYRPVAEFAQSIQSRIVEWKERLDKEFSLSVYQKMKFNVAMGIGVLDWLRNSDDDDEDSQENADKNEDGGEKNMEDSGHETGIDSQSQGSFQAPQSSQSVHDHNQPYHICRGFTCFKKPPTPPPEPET
Format: functional, Betapolyomavirus macacae
The source made the active and inactive calls.
Entries annotated with measured IC50

CCOC(=O)c1c(N2C(=O)Nc3cc(Cl)c(Cl)cc3N2O)sc2c1CCCCC2 :: > 100 µM (active)
COc1cc(/C=C2\SC(=N)NC2=O)ccc1O :: 5.02 µM (active)
COc1ccc2c(c1OC)C(=O)N(c1ccc(O)cc1)C2 :: > 100 µM (active)

Read the next record carefully.
Which value of IC50 has been reported for O=C1CS/C(=N\c2ccc(O)cc2)N1c1ccc(O)cc1 in the records?
11.4 µM (active)

====

Entries annotated with measured CC50
Test: microbe, parasite or virus in culture
Type: functional
Conditions: Mycobacterium tuberculosis
Active and inactive are the calls of the source.

Completed entries (count: 4):
COC(=O)c1[nH]c2cc(OC)ccc2c1NC(=O)CN1CCN(c2cccc(C)c2)C(C)C1 (stereo not given) :: 30.6 µM (active)
C/C(=N\NC(=O)CC(C)C)c1c(C(F)(F)F)nn(-c2nc3ccccc3s2)c1O :: 37.4 µM (active)
CCCCCCCCCCCCCCCC[N+](C)(C)CC :: 34.8 µM (active)
COc1ccc2[nH]c3c(C)c4ccncc4c(C)c3c2c1 :: 0.838 µM (active)

Which value of CC50 has been reported for CN1CCN(Cc2nc3ccccc3c(=O)n2Cc2nc(-c3ccc4ccccc4c3)cs2)CC1 in the records?
6.44 µM (active)

====

Entries annotated with measured IC50
Target: High affinity choline transporter 1 (Homo sapiens, UniProt Q9GZV3)
Sequence (Q9GZV3 whole entry): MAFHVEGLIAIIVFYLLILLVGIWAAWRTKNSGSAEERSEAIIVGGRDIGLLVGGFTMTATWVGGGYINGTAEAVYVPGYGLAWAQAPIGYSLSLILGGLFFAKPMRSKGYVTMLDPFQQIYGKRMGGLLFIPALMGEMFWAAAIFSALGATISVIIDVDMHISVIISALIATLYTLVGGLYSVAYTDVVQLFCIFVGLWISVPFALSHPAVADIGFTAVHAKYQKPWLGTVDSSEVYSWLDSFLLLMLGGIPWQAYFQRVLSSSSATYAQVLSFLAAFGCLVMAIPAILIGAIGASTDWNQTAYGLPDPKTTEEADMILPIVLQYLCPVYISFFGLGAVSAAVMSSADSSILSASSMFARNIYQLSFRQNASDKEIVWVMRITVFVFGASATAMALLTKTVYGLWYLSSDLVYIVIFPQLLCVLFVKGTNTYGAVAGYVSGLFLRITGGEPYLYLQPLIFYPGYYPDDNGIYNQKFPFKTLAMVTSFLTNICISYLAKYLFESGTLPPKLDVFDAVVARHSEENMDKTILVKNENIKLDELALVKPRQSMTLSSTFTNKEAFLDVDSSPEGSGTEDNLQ
Test: CHT inhibitors, dose response, cell-based, 5-point CRC, membrane potential dye (AID 504840)
Type: functional
The source made the active and inactive calls.

Completed entries (count: 4):
COc1ccc(C(=O)C[n+]2cccc(Br)c2)cc1 :: 4.21 µM (active)
CC(=O)OCC[N+](C)(C)C [ACETYLCHOLINE CHLORIDE] :: 6.26 µM (active)
CCCCc1ccc(NC(S)=NCC2CCCO2)cc1 (stereo not given) :: 15.8 µM (active)
CCSc1nnc(NC(=O)C(C)(C(F)(F)F)C(F)(F)F)s1 :: 3.47 µM (active)

Read the next record carefully.
Which value of IC50 has been reported for Fc1ccc(-c2nc3c(-c4ccccc4)cnn3cc2CCN2CCOCC2)cc1 in the records?
13.2 µM (active)
